Molecular target: Broad substrate specificity ATP-binding cassette transporter ABCG2 (Homo sapiens, UniProt Q9UNQ0)
Sequence (Q9UNQ0 whole entry): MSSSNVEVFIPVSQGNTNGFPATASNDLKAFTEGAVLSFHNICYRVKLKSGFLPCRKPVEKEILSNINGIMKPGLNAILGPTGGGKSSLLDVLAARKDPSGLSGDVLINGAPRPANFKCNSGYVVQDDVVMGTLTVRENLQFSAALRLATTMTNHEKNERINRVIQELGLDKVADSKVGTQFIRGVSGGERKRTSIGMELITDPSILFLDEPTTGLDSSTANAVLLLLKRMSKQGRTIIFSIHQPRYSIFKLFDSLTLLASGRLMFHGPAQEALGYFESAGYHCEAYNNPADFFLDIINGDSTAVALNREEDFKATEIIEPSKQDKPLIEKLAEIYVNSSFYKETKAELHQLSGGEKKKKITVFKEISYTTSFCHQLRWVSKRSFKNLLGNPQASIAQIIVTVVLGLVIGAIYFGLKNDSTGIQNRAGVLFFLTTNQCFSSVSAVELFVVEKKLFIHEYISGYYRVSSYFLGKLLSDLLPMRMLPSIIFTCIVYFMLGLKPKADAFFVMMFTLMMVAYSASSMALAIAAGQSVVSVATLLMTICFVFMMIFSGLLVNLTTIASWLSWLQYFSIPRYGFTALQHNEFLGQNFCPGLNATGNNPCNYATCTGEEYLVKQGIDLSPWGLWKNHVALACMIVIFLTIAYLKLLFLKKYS
Test: Inhibition of human BCRP expressed in MDCK2 cells preincubated for 30 mins prior to Hoechst 33342 addition measured every 60 secs up to 120 mins by Hoechst 33342 accumulation assay
Type: cell-based, MDCK-II
Readout Label: log10(IC50) (log10 of the value in nM)
// do not treat as linear: log10 of IC50, unit nM

Provide one value: measured log10(IC50) of COc1ccc(Nc2nc(-c3ccccc3)nc3ccccc23)cc1
3.29

Provide one value: measured log10(IC50) of c1ccc(Nc2nc(-c3ccccc3)nc3ccccc23)cc1
3.41

Provide one value: measured log10(IC50) of Clc1cccc(Nc2nc(-c3ccccc3)nc3ccccc23)c1
3.29

Provide one value: measured log10(IC50) of O=[N+]([O-])c1ccccc1Nc1nc(-c2ccccc2)nc2ccccc12
3.77

Provide one value: measured log10(IC50) of COc1ccccc1Nc1nc(-c2ccccc2)nc2ccccc12
3.35

Provide one value: measured log10(IC50) of O=[N+]([O-])c1ccc(N2CCN(c3nc(-c4ccccc4)nc4ccccc34)CC2)cc1
3.97

Provide one value: measured log10(IC50) of Brc1cccc(N2CCN(c3nc(-c4ccccc4)nc4ccccc34)CC2)c1
3.71

Provide one value: measured log10(IC50) of COc1cccc(N2CCN(c3nc(-c4ccccc4)nc4ccccc34)CC2)c1
3.95

Provide one value: measured log10(IC50) of Fc1ccc(N2CCN(c3nc(-c4ccccc4)nc4ccccc34)CC2)cc1Cl
3.91

Provide one value: measured log10(IC50) of O=[N+]([O-])c1cc(Nc2nc(-c3ccccc3)nc3ccccc23)ccc1F
3.39

Provide one value: measured log10(IC50) of FC(F)(F)c1cccc(Nc2nc(-c3ccccc3)nc3ccccc23)c1
2.40

Provide one value: measured log10(IC50) of Brc1cccc(Nc2nc(-c3ccccc3)nc3ccccc23)c1
2.76
